The measured values listed here are drawn from patent US20240043521A1.

molecular target: T1, human S100A4 dimer (Homo sapiens, UniProt P26447 1-101); test: SPR, Biacore T200, 25 C; S100A4 captured via anti-His, antibody as analyte (0.78-200 nM), 1:1 fit
T1 construct: In the SPR it was captured on an anti-His surface, so it carried a His tag; also called recombinant human S100A4 dimer
T1 sequence (P26447 whole entry, one chain of several): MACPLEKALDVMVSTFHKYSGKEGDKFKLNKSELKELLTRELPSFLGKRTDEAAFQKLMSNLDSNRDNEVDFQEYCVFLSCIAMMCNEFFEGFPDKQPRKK
Assignment: determine reported kon for the given binders.
Answers are plain numbers, in M⁻¹ s⁻¹.

Here is how some binders turned out for kon.
{"BINDER": "VH1 VL3_L42Gly (antibody, V domains shown) VH: QVQLQESGPGLVKPSQTLSLTCTVSGDSFTNDYYWNWIRQHPGKGLEWIGHIGYGGNINYNPSLKNRLSMSRDTSKNQFSLKLSSVTAADTAVYYCTRESFYDGYPFDYWGQGTLVTVSS VL: DIQMTQSPSSLSASVGDRVTITCRASQDIRNYLNWYQQKPGGAPKLLLYYTSRLHSGVPSRFSGSGSGTDYTLTISSLQPEDFATYYCQQGNSLPRTFGGGTKVEIK", "kon (M⁻¹ s⁻¹)": 213000}
{"BINDER": "VH1_H43Ser + H44Lys VL3_L44Leu (antibody, V domains shown) VH: QVQLQESGPGLVKPSQTLSLTCTVSGDSFTNDYYWNWIRQHPGSKLEWIGHIGYGGNINYNPSLKNRLSMSRDTSKNQFSLKLSSVTAADTAVYYCTRESFYDGYPFDYWGQGTLVTVSS VL: DIQMTQSPSSLSASVGDRVTITCRASQDIRNYLNWYQQKPGKALKLLLYYTSRLHSGVPSRFSGSGSGTDYTLTISSLQPEDFATYYCQQGNSLPRTFGGGTKVEIK", "kon (M⁻¹ s⁻¹)": 236000}

# evaluate next
QUERY: Find the recorded kon belonging to VH1_H43Ser VL3_L44Leu (antibody, V domains shown) VH: QVQLQESGPGLVKPSQTLSLTCTVSGDSFTNDYYWNWIRQHPGSGLEWIGHIGYGGNINYNPSLKNRLSMSRDTSKNQFSLKLSSVTAADTAVYYCTRESFYDGYPFDYWGQGTLVTVSS VL: DIQMTQSPSSLSASVGDRVTITCRASQDIRNYLNWYQQKPGKALKLLLYYTSRLHSGVPSRFSGSGSGTDYTLTISSLQPEDFATYYCQQGNSLPRTFGGGTKVEIK and report it.
RESULT: 215000
